Protein target, amino acids: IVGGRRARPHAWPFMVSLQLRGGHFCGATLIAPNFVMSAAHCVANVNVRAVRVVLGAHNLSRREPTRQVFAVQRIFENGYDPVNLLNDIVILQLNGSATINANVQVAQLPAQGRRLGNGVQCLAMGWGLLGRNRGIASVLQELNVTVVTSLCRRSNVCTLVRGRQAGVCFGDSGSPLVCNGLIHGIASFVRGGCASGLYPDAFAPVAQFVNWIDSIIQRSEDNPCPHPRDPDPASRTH
pKi: −log10 of the molar value.
attribute_measured: pKi

compound="COc1cc(C(C)C)c2c(c1)S(=O)(=O)N(COc1cc(-c3c(F)c(F)c(F)c(F)c3F)nn1-c1ccccc1)C2=O [19 (c)]" reading=9.09
compound="CCOC(=O)c1cc(OCN2C(=O)c3c(C(C)C)cc(OC)cc3S2(=O)=O)n(-c2ccccc2)n1 [Example 12]" reading=10.11
compound="CC(C)c1cc(OCCCC(=O)O)cc2c1C(=O)N(COc1cc(C(F)(F)F)nn1-c1ccc(Cl)cc1)S2(=O)=O [39 (c)]" reading=10.13
compound="COc1ccc(-n2nc(C(F)(F)F)cc2OCN2C(=O)c3c(C(C)C)cc(OC)cc3S2(=O)=O)cc1 [15 (b)]" reading=9.89

###

Molecular target: human leukocyte elastase (Homo sapiens, UniProt P08246)
Sequence (P08246 30-267): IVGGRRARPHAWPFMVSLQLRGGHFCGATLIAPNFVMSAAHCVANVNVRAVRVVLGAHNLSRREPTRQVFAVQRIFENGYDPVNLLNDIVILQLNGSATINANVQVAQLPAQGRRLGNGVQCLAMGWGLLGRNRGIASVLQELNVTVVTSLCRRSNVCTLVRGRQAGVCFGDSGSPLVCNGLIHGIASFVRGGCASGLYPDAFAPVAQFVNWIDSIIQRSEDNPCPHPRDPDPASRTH
attribute_measured: Ki (nM)

compound="COc1cc(C(C)C)c2c(c1)S(=O)(=O)N(COc1cc(Cl)nn1-c1ccccc1)C2=O [24 (c)]" reading=0.026
compound="COc1cc(C(C)C)c2c(c1)S(=O)(=O)N(COc1cc(C(F)(F)F)nn1Cc1ccccc1)C2=O [Example 48]" reading=39
compound="CCOc1cc(OCC)c2c(c1)S(=O)(=O)N(COc1cc(C(F)(F)F)nn1-c1ccccc1)C2=O [Example 47]" reading=0.5
compound="COc1cc(C(C)C)c2c(c1)S(=O)(=O)N(COc1cc(C)nn1-c1ccccc1)C2=O [4 (b)]" reading=0.44

###

biological target: human leukocyte elastase (Homo sapiens); experiment: human leukocyte elastase (HLE) inhibitory activity, substrate MeOSuc-Ala-Ala-Pro-Val-pNA; format: biochemical; conditions: pH 7.8, 25° C., steady-state velocities
attribute_measured: Ki (nM)

test_smiles=COc1cc(C(C)C)c2c(c1)S(=O)(=O)N(COc1cc(C(F)(F)F)nn1-c1ccc(Cl)cc1)C2=O assayed_target="human leukocyte elastase (Homo sapiens)" attribute_measured=Ki reading=0.11
test_smiles=COc1cc(C(C)C)c2c(c1)S(=O)(=O)N(COc1c(Cl)c(C(F)(F)F)nn1-c1ccccc1)C2=O assayed_target="human leukocyte elastase (Homo sapiens)" attribute_measured=Ki reading=1.6
test_smiles=COc1cc(C(C)C)c2c(c1)S(=O)(=O)N(COc1cc(C(=O)O)nn1-c1ccccc1)C2=O assayed_target="human leukocyte elastase (Homo sapiens)" attribute_measured=Ki reading=0.31
test_smiles=COc1cc(C(C)C)c2c(c1)S(=O)(=O)N(COc1cc(C(F)(F)F)nn1-c1ccccc1)C2=O assayed_target="human leukocyte elastase (Homo sapiens)" attribute_measured=Ki reading=0.068
test_smiles=COc1cc(C(C)C)c2c(c1)S(=O)(=O)N(COc1cc(C#N)nn1-c1ccccc1)C2=O assayed_target="human leukocyte elastase (Homo sapiens)" attribute_measured=Ki reading=0.014
test_smiles=COc1cc(C(C)C)c2c(c1)S(=O)(=O)N(COc1cc(C(F)(F)F)nn1-c1cccnc1)C2=O assayed_target="human leukocyte elastase (Homo sapiens)" attribute_measured=Ki reading=0.037
test_smiles=COc1cc(C(C)C)c2c(c1)S(=O)(=O)N(COc1cc(C(F)(F)F)nn1C)C2=O assayed_target="human leukocyte elastase (Homo sapiens)" attribute_measured=Ki reading=0.1
test_smiles=CCN(CC)CCN(C)C(=O)c1cc(OCN2C(=O)c3c(C(C)C)cc(OC)cc3S2(=O)=O)n(-c2ccccc2)n1 assayed_target="human leukocyte elastase (Homo sapiens)" attribute_measured=Ki reading=0.143
test_smiles=CC(C)c1cc(O)cc2c1C(=O)N(COc1cc(C(F)(F)F)nn1-c1ccc(Cl)cc1)S2(=O)=O assayed_target="human leukocyte elastase (Homo sapiens)" attribute_measured=Ki reading=1.9
test_smiles=COc1cc(C(C)C)c2c(c1)S(=O)(=O)N(COc1cc(C(F)(F)F)nn1-c1cccc(C(F)(F)F)n1)C2=O assayed_target="human leukocyte elastase (Homo sapiens)" attribute_measured=Ki reading=0.029

Sourced from patent US5750550A
